# System: Staphylococcus aureus
# Method Notes: Antibacterial activity against Staphylococcus aureus KCTC 1621 incubated for 24 hrs by CLSI based broth microdilution method
# Format: functional
Measurement Label: MIC (µM)
A number alone suffices; assume µM.

Worked set:
# Substance, Display Unit, MIC
measured = [
    ("H-GVFRLKKWIQKVIKQWGK-NH2", "µM", 8),
    ("H-GVFRLKKWIRKVIRRWGR-NH2", "µM", 8),
]

The substance identified as `H-GVFRLKKWLKKVKKWGK-NH2` registered its MIC at 8

Memo: `H-GVFRLKKWIKKVIKKWGK-NH2` , reported MIC: 8

Field MIC (entry `H-GVFRLKKWIQKVIRQWGR-NH2` ) reads 8

response.value for `H-HVFRLKKWIQKVIDQFGE-OH` (field: MIC) = 128
